P.D.I. overview
- assay_method_text: Size distribution, polydispersity and Z-potential of LNPs by dynamic light scattering (Malvern Zetasizer)
- Type: physicochemical
- assay_conditions: LNPs, standard formulation 50:10:38.5:1.5; DLS
Give the value as a plain number.

Would you please look over these solved cases?
[
  {
    "compound": "CCCCCCCCC(CCCCCC)C(=O)NC(CCSCCC(=O)OCCCCCCCC(C)C)C(=O)NCCCN1CCCC1 (stereo not drawn)",
    "P.D.I.": 0.18
  },
  {
    "compound": "CCCCCCCCCCC(CCCCCCCC)C(=O)NC(CCSCCC(=O)OCC(CCCCCC)CCCCCCCC)C(=O)NC1CCN(C)CC1 (stereo not drawn)",
    "P.D.I.": 0.11
  },
  {
    "compound": "CCCCCCCCCCC(CCCCCCCC)C(=O)NC(CCSCCC(=O)OCC(CC)CCCC)C(=O)NC1CCN(C)CC1 (stereo not drawn)",
    "P.D.I.": 0.14
  },
  {
    "compound": "CCCCCCCCCCCCOC(=O)CCSCCC(NC(=O)C(CCCCCCCC)CCCCCCCCCC)C(=O)NCC1CCN(C)CC1 (stereo not drawn)",
    "P.D.I.": 0.14
  },
  {
    "compound": "CCCCCCCCC(CCCCCC)COC(=O)CCSCC(CC(=O)NC1CCN(C)CC1)C(=O)OCC(CCCCCC)CCCCCCCC (stereo not drawn)",
    "P.D.I.": 0.18
  },
  {
    "compound": "CCCCCCCCCCCCOC(=O)CCSCCC(NC(=O)C(CCCCCC)CCCCCCCC)C(=O)NCCCn1ccnc1 (stereo not drawn)",
    "P.D.I.": 0.18
  }
]

Recorded P.D.I. of CCCCCCCCOC(=O)CCSCCC(NC(=O)C(CCCCCC)CCCCCCCC)C(=O)NCCCn1ccnc1 (stereo not drawn) , please. 0.15

Repeat with CCCCCCCCCCCCCOC(=O)CCSCCC(NC(=O)C(CCCCCCCC)CCCCCCCCCC)C(=O)NCC1CCN(C)CC1 (stereo not drawn) 0.13

Repeat with CCCCCCCCCCCCCCCCCCCCCCOC(=O)CCSCCC(C(=O)NCCCn1ccnc1)C(=O)OC(CCCCCCCC)CCCCCCCC (stereo not drawn) 0.18

---

- assay_method_text: Size distribution, polydispersity and Z-potential of LNPs by dynamic light scattering (Malvern Zetasizer)
- Assay type: physicochemical
- assay_conditions: LNPs, standard formulation 50:10:38.5:1.5; DLS
Particle size/ Ø (nm) overview
State just the number; it will be interpreted in nm.

Would you please look over these solved cases?
[
  {
    "compound": "CCCCCCCCC(CCCCCCCC)OC(=O)C(CSCCC(=O)OCCCCCC)CC(=O)NCCCn1ccnc1 (stereo not shown)",
    "measured_attribute": "Particle size/ Ø (nm)",
    "observed": 184.2
  },
  {
    "compound": "CCCCCCCCCCCCOC(=O)CCSCCC(NC(=O)C(CCCCCC)CCCCCCCC)C(=O)NCCN1CCN(C)CC1 (stereo not shown)",
    "measured_attribute": "Particle size/ Ø (nm)",
    "observed": 217.1
  },
  {
    "compound": "CCCCCCCCCCCCCOC(=O)CCSCC(CC(=O)NC1CCN(C)CC1)C(=O)OCC(CCCCCC)CCCCCCCC (stereo not shown)",
    "measured_attribute": "Particle size/ Ø (nm)",
    "observed": 129.9
  }
]

Okay, now this compound:
Recorded Particle size/ Ø (nm) of CCCCCCCCC(CCCCCCCC)OC(=O)C(CSCCC(=O)OCCCCCCCC(C)C)CC(=O)NCCCn1ccnc1 (stereo not shown) , please. 175.8

---

- assay_method_text: Size distribution, polydispersity and Z-potential of LNPs by dynamic light scattering (Malvern Zetasizer)
- Type: physicochemical
- assay_conditions: LNPs, standard formulation 50:10:38.5:1.5; DLS
P.D.I. overview
Give the value as a plain number.

Recorded P.D.I. of CCCCCCCCCCCCCOC(=O)CCSCCC(C(=O)NCCCn1ccnc1)C(=O)OC(CCCCCCCC)CCCCCCCC (centres unmarked) [VC-LC-0362] , please. 0.14

Repeat with CCCCCCCCCCCCOC(=O)CCSCCC(C(=O)NCCCN1CCOCC1)C(=O)OCC(CCCCCC)CCCCCCCC (centres unmarked) [VC-LC-0609] 0.16

Repeat with CCCCCCCC/C=C\CCCCCCCCOC(=O)CCSCCC(NC(=O)C(CCCCCCCC)CCCCCCCCCC)C(=O)NCCCN1CCOCC1 (centres unmarked) [VC-LC-0587] 0.12

Repeat with CCCCCCCCC(CCCCCC)C(=O)NC(CCSCCC(=O)OCC(CC)CCCC)C(=O)NCCCn1ccnc1 (centres unmarked) [VC-LC-0259] 0.14

Repeat with CCCCCCCCCCCCCCOC(=O)CCSCCC(NC(=O)C(CCCCCCCC)CCCCCCCCCC)C(=O)NCCCN1CCOCC1 (centres unmarked) [VC-LC-0577] 0.13

Repeat with CCCCCCCC#CCOC(=O)CCSCCC(NC(=O)CCCCCCCCCCCCCCCCC)C(=O)NC1CCN(C)CC1 (centres unmarked) [VC-LC-0437] 0.23

Repeat with CCCCCCCCC(CCCCCCCC)OC(=O)C(CSCCC(=O)OCC(CC)CCCC)CC(=O)NCCCn1ccnc1 (centres unmarked) [VC-LC-0297] 0.18

Repeat with CCCCCCCCC(CCCCCCCC)OC(=O)C(CCSCCC(=O)OCCCCCC(C)C)C(=O)NCCCn1ccnc1 (centres unmarked) [VC-LC-0370] 0.21

Repeat with CCCCCCCCCCCCCCOC(=O)CCSCCC(C(=O)NCCCN1CCOCC1)C(=O)OCC(CCCCCC)CCCCCCCC (centres unmarked) [VC-LC-0610] 0.13

Repeat with CCCCCCCCCCCCCCCCCCOC(=O)CCSCCC(C(=O)NCCCn1ccnc1)C(=O)OC(CCCCCCCC)CCCCCCCC (centres unmarked) [VC-LC-0368] 0.1

Repeat with CCCCCCCCCCCCCCCCCC(=O)NC(CCSCCC(=O)OCC(CCCCCCCCCC)CCCCCCCCCCCC)C(=O)NCCCN1CCOCC1 (centres unmarked) [VC-LC-0389] 0.26

Repeat with CCCCCCCCCCCCCCCCCCOC(=O)CCSCC(CC(=O)NC1CCN(C)CC1)C(=O)OCC(CCCCCC)CCCCCCCC (centres unmarked) [VC-LC-0530] 0.26

Repeat with CCCCCCCC/C=C\CCCCCCCCOC(=O)CCSCCC(NC(=O)C(CCCCCC)CCCCCCCC)C(=O)NC1CCN(C)CC1 (centres unmarked) [VC-LC-0430] 0.23

Repeat with CCCCCCCCC(CCCCCC)C(=O)NC(CCSCCC(=O)OCCCCCCCC(C)C)C(=O)NCCN(CC)CC (centres unmarked) [VC-LC-0475] 0.13

Repeat with CCCCCCCCCCC(CCCCCCCC)C(=O)NC(CCSCCC(=O)OCCCCCC)C(=O)NC1CCN(C)CC1 (centres unmarked) [VC-LC-0566] 0.13

Repeat with CCCCCCCC/C=C\CCCCCCCCOC(=O)CCSCC(CC(=O)NC1CCN(C)CC1)C(=O)OCC(CCCCCC)CCCCCCCC (centres unmarked) [VC-LC-0539] 0.13

Repeat with CCCCCCCCCCCCC(CCCCCCCCCC)COC(=O)CCSCCC(NC(=O)C(CCCCCC)CCCCCCCC)C(=O)NCCN1CCOCC1 (centres unmarked) [VC-LC-0407] 0.1

---

- assay_method_text: Size distribution, polydispersity and Z-potential of LNPs by dynamic light scattering (Malvern Zetasizer)
- Format: physicochemical
- assay_conditions: LNPs, standard formulation 50:10:38.5:1.5; DLS
measured_attribute: Z Potential (± D.E.) [mV] (mV)
State just the number; it will be interpreted in mV.

[
  {
    "compound": "CCCCCCCCC(CCCCCC)COC(=O)C(CSCCC(=O)OCCCCCC(C)C)CC(=O)NC1CCN(C)CC1 (centres unmarked)",
    "units_label": "mV",
    "Z Potential (± D.E.) [mV]": 8.05
  }
]

Recorded Z Potential (± D.E.) [mV] of CCCCCCCC/C=C\CCCCCCCC(=O)NC(CCSCCC(=O)OCCCCCCCCCCCCC)C(=O)NC1CCN(C)CC1 (centres unmarked) , please. 2.31

Repeat with CCCCCCCCCCCCCCCCCC(=O)NC(CCSCCC(=O)OCC(CCCCCC)CCCCCCCC)C(=O)NC1CCN(C)CC1 (centres unmarked) 4.87

---

- assay_method_text: Apparent pKa of LNPs comprising the ionizable lipid (Table 6)
- assay_conditions: standard formulation 50:10:38.5:1.5
Apparent pKa overview
Give the value as a plain number.

Would you please look over these solved cases?
[
  {
    "compound": "CCCCCCCCC(CCCCCC)C(=O)NC(CCSCCC(=O)OCCCCCCCC(C)C)C(=O)NCCN(CC)CC (centres unmarked)",
    "Apparent pKa": 6.59
  },
  {
    "compound": "CCCCCCCC/C=C\\CCCCCCCCOC(=O)CCSCC(CC(=O)NC1CCN(C)CC1)C(=O)OCC(CCCCCC)CCCCCCCC (centres unmarked)",
    "Apparent pKa": 6.90
  },
  {
    "compound": "CCCCCCCCCCC(CCCCCCCC)C(=O)NC(CCSCCC(=O)OCCCCCCCC(C)C)C(=O)NCC1CCN(C)CC1 (centres unmarked)",
    "Apparent pKa": 7.60
  },
  {
    "compound": "CCCCCCCCC(CCCCCC)COC(=O)CCSCCC(NC(=O)C(CCCCCC)CCCCCCCC)C(=O)NCCN(CC)CC (centres unmarked)",
    "Apparent pKa": 5.61
  },
  {
    "compound": "CCCCCCCCCCCCOC(=O)CCSCCC(NC(=O)C(CCCCCCCC)CCCCCCCCCC)C(=O)NCC1CCN(C)CC1 (centres unmarked)",
    "Apparent pKa": 6.85
  },
  {
    "compound": "CCCCCCCCC(CCCCCCCC)OC(=O)C(CSCCC(=O)OCCCCCCCC(C)C)CC(=O)NCCCN1CCOCC1 (centres unmarked)",
    "Apparent pKa": 6.43
  }
]

Recorded Apparent pKa of CCCCCCCCC(CCCCCCCC)OC(=O)C(CSCCC(=O)OCC(CC)CCCC)CC(=O)NCCCN1CCOCC1 (centres unmarked) , please. 6.61

Repeat with CCCCCCCCCCCCC(CCCCCCCCCC)COC(=O)CCSCCC(NC(=O)C(CCCCCC)CCCCCCCC)C(=O)NCCN1CCOCC1 (centres unmarked) 4.66
